Reported IC50 values, PI3K (p120γ) (h) (Homo sapiens (Human)).
quantity-kind: IC50 (µM)

A. CC#Cc1cccc2cc([C@H](C)Nc3ncnc(N)c3-c3nc(C)no3)n(-c3ccccc3)c(=O)c12 [Example 16]
B. Cc1noc(-c2c(N)ncnc2N[C@@H](C)c2nc3cccc(C#CCO)c3c(=O)n2-c2ccccc2)n1 [Example 34]
C. CC[C@H](Nc1ncnc(N)c1-c1nnc(C)o1)c1nc2cccc(C#CCO)c2c(=O)n1-c1ccccc1 [Example 37]
D. CC#Cc1cccc2nc([C@H](CC)Nc3ncnc(N)c3-c3nc(C)no3)n(-c3ccccc3)c(=O)c12 [Example 14]
// rank the listed compounds by IC50, lowest value first Respond with an ordered listing of the labels, as requested.
D, A, B, C
(D: 0.015 µM, A: 0.026 µM, B: 0.192 µM, C: 0.44 µM)

###

- target-under-test: PI3K (p110β/p85α) (h) (Homo sapiens (Human))
- Sequence (P42338 whole entry): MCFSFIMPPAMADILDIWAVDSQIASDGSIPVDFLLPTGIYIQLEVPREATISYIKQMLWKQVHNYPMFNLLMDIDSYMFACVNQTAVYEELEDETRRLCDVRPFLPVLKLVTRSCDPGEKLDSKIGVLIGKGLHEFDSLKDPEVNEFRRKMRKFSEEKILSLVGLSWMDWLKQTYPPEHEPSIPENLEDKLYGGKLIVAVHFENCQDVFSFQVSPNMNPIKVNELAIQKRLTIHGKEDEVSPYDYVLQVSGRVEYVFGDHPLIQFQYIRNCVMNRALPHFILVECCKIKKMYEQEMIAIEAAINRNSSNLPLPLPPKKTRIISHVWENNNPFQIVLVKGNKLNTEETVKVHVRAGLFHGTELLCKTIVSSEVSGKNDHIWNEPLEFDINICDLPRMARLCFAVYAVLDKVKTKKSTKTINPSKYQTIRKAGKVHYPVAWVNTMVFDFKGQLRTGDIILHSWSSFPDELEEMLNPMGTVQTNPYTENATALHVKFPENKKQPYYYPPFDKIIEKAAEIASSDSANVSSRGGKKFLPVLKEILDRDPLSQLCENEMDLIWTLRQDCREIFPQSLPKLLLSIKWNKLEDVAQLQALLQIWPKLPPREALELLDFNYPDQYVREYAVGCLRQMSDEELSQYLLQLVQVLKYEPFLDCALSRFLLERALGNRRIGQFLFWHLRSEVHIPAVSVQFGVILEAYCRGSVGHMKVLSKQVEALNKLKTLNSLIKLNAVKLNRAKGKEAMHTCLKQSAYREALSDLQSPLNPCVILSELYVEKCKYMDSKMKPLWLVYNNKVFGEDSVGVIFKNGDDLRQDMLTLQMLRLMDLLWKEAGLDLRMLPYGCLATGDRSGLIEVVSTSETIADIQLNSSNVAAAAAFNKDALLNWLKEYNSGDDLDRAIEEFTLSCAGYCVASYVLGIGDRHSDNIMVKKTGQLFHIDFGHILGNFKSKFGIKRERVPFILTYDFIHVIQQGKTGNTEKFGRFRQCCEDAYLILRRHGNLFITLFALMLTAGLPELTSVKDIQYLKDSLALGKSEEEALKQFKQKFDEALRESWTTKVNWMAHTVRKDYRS
- Sequence (P27986 whole entry partner): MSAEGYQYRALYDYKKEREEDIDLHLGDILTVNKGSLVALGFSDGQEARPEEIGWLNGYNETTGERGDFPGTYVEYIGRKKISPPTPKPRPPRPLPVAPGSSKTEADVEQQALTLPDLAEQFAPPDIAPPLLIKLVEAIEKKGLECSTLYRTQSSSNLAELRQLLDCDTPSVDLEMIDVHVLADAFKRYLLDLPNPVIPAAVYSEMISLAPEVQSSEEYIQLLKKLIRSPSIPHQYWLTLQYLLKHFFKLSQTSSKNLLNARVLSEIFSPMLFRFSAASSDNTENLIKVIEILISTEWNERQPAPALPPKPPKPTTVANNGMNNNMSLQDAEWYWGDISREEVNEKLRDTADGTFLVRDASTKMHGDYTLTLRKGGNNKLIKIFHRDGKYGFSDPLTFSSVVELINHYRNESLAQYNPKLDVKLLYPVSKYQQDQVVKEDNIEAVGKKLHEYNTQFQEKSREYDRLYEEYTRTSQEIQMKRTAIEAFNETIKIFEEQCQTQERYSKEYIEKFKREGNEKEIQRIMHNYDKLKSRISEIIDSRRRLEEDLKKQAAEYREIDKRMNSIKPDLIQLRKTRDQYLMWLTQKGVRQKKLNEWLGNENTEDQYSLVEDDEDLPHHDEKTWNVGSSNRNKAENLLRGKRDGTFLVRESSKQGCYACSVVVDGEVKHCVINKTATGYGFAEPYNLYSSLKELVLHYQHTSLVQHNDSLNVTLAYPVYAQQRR
- test: PI3K (p110β/p85α) (h) non-radioactive HTRF kinase assay
quantity-kind: IC50 (nM)

compound | IC50, nM
Cc1noc(-c2c(N)ncnc2N[C@@H](C)c2cc3cccc(C#CCO)c3c(=O)n2-c2ccccc2)n1 [Example 40] | 154

I. CC[C@H](Nc1ncnc(N)c1-c1nc(C)no1)c1nc2cccc(C#CCO)c2c(=O)n1-c1ccccc1 [Example 36]
II. CC#Cc1cccc2cc([C@H](C)Nc3ncnc(N)c3-c3nc(C)no3)n(-c3ccccc3)c(=O)c12 [Example 16]
III. Cc1noc(-c2c(N)ncnc2N[C@@H](C)c2nc3ccc(F)c(C#CCO)c3c(=O)n2-c2ccccc2)n1 [Example 42]
IV. Cc1noc(-c2c(N)ncnc2N[C@@H](C)c2cc3cccc(C#CCO)c3c(=O)n2C2CC2)n1 [Example 33]
V. Cc1noc(-c2c(N)ncnc2N[C@@H](C)c2nc3cccc(C#CCO)c3c(=O)n2-c2ccccc2)n1 [Example 34]
hey, can you rank those compounds up there by IC50? biggest number first please Put the labels in the requested order and write them down.
III, I, V, IV, II
(III: 1600 nM, I: 395 nM, V: 160 nM, IV: 104 nM, II: 61 nM)

P. CC#Cc1cccc2nc([C@H](C)Nc3ncnc(N)c3-c3nnc(C)o3)n(-c3ccccc3)c(=O)c12 [Example 10]
Q. CC[C@H](Nc1ncnc(N)c1-c1nc(C)no1)c1nc2cccc(C#CCO)c2c(=O)n1C1CC1 [Example 29]
R. Cc1noc(-c2c(N)ncnc2N[C@@H](C)c2nc3cccc(C#CC(C)O)c3c(=O)n2-c2ccccc2)n1 (stereo partly shown) [Example 5]
Reorder: IC50, max to min. API: response body holds the labels in the requested order.
R, P, Q

a. CC#Cc1cccc2nc([C@H](CC)Nc3ncnc(N)c3-c3nc(C)no3)n(-c3ccccc3)c(=O)c12 [Example 14]
b. CC#Cc1cccc2nc([C@H](C)Nc3ncnc(N)c3-c3nc(C)no3)n(-c3ccccc3)c(=O)c12 [Example 9]
IC50 comparison. Which is larger, a or b ? Select an item and report its label.
a
(a: 582 nM, b: 151 nM)

###

- test: Pharmacokinetic profiles in rats
- Type: in vivo, rat
- cond: iv dosing 1 mg/kg
quantity-kind: clearance (mL/min/kg)

Look over these answered cases.
compound-string | clearance / mL/min/kg
C[C@H](Nc1ncnc(N)c1-c1nnn(C)n1)c1nc2cccc(C#CC(C)(C)O)c2c(=O)n1-c1ccccc1 | 8.33
CC#Cc1cccc2nc([C@H](C)Nc3ncnc(N)c3-c3nnc(C)o3)n(C3CC3)c(=O)c12 | 25.3

a. Cc1nc(-c2c(N)ncnc2N[C@@H](C)c2nc3cccc(C#CC(C)(C)O)c3c(=O)n2-c2ccccc2)no1
b. C#Cc1cccc2nc([C@H](C)Nc3ncnc(N)c3-c3nnn(C)n3)n(C3CC3)c(=O)c12
Lower value of clearance belongs to which: a or b ? # answer = label of selected item
a

###

- test: Pharmacokinetic profiles in rats
- Assay type: in vivo, rat
- cond: rat, plasma, iv dosing 1 mg/kg, read-out: Vss
quantity-kind: Vd (L/kg)

molecule | obs-value
Cc1noc(-c2c(N)ncnc2N[C@@H](C)c2nc3cccc(C#CCO)c3c(=O)n2-c2ccccc2)n1 | 1.68

A. Cc1noc(-c2c(N)ncnc2N[C@@H](C)c2nc3cccc(C#CC(C)(C)O)c3c(=O)n2-c2ccccc2)n1
B. Cc1nnc(-c2c(N)ncnc2N[C@@H](C)c2nc3cccc(C#CC(C)(C)O)c3c(=O)n2-c2ccccc2)o1
Could you tell me which of these two has the smaller Vd figure? First: A Second: B Let me know the label of the one you choose.
B

###

- test: Pharmacokinetic profiles in rats
- Type: in vivo, rat
- cond: rat, plasma, iv dosing 1 mg/kg
quantity-kind: half-life (min)

Worked set:
compound | half-life [min]
CC#Cc1cccc2nc([C@H](C)Nc3ncnc(N)c3-c3nnc(C)o3)n(C3CC3)c(=O)c12 | 58.2
Cc1noc(-c2c(N)ncnc2N[C@@H](C)c2nc3cccc(C#CC(C)(C)O)c3c(=O)n2-c2ccccc2)n1 | 194
Cc1nc(-c2c(N)ncnc2N[C@@H](C)c2nc3cccc(C#CCO)c3c(=O)n2-c2ccccc2)no1 | 45.6
Cc1nc(-c2c(N)ncnc2N[C@@H](C)c2nc3cccc(C#CC(C)(C)O)c3c(=O)n2-c2ccccc2)no1 | 106
Cc1noc(-c2c(N)ncnc2N[C@@H](C)c2nc3cccc(C#CCO)c3c(=O)n2-c2ccccc2)n1 | 54.6

a. Cc1nnc(-c2c(N)ncnc2N[C@@H](C)c2nc3cccc(C#CC(C)O)c3c(=O)n2-c2ccccc2)o1 (stereo partly drawn)
b. Cc1nnc(-c2c(N)ncnc2N[C@@H](C)c2nc3cccc(C#CC(C)(C)O)c3c(=O)n2-c2ccccc2)o1
// task: argmin of half-life over [ a , b ] Write the label of whichever entry you select.
a
(a: 36.6 min, b: 85.2 min)

1. C#Cc1cccc2nc([C@H](C)Nc3ncnc(N)c3-c3nnn(C)n3)n(C3CC3)c(=O)c12
2. C[C@H](Nc1ncnc(N)c1-c1nnn(C)n1)c1nc2cccc(C#CC(C)(C)O)c2c(=O)n1-c1ccccc1
Given 1 and given 2 , which shows the smaller recorded half-life? Provide the label of your selected option as the answer.
1
(1: 43.8 min, 2: 112 min)

###

- test: Compound stability in human liver microsomes
- Format: in vitro ADME
- cond: liver microsomes, pH 7.4; in vivo CLint extrapolated from human liver microsome incubation
quantity-kind: CLint scaled at 5 μM (mL/min/kg)

Here's what some known entries look like.
compound | CLint scaled at 5 μM / mL/min/kg
Cc1noc(-c2c(N)ncnc2N[C@@H](C)c2nc3cccc(C#CCO)c3c(=O)n2C2CC2)n1 | 26.2
C#Cc1cccc2nc([C@H](C)Nc3ncnc(N)c3-c3nnc(C)o3)n(C3CC3)c(=O)c12 | 47.7
Cc1noc(-c2c(N)ncnc2N[C@@H](C)c2nc3cccc(C#CC(C)(C)O)c3c(=O)n2-c2ccccc2)n1 | 14.3

a. CC[C@H](Nc1ncnc(N)c1-c1nc(C)no1)c1nc2cccc(C#CCO)c2c(=O)n1C1CC1
b. C#Cc1cccc2nc([C@H](C)Nc3ncnc(N)c3-c3noc(C)n3)n(C3CC3)c(=O)c12
c. C#Cc1cccc2nc([C@H](C)Nc3ncnc(N)c3-c3ncn(C)n3)n(-c3ccccc3)c(=O)c12
Sequence the entries by CLint scaled at 5 μM, beginning with the highest number. Reply: labels, ordered per the request.
c, b, a

I. CC#Cc1cccc2nc([C@H](CC)Nc3ncnc(N)c3-c3nc(C)no3)n(-c3ccccc3)c(=O)c12
II. CC#Cc1cccc2nc([C@H](CC)Nc3ncnc(N)c3-c3nnc(C)o3)n(C3CC3)c(=O)c12
III. CC#Cc1cccc2nc([C@H](C)Nc3ncnc(N)c3-c3noc(C)n3)n(-c3ccccc3)c(=O)c12
IV. C[C@H](Nc1ncnc(N)c1-c1nnn(C)n1)c1nc2cccc(C#CCO)c2c(=O)n1-c1ccccc1
Order each entry by recorded CLint scaled at 5 μM, climbing from the minimum. Response field: labels, in requested order.
IV, III, II, I

A. C#Cc1cccc2nc([C@H](C)Nc3ncnc(N)c3-c3nc(C)no3)n(C3CC3)c(=O)c12
B. CC[C@H](Nc1ncnc(N)c1-c1nnc(C)o1)c1nc2cccc(C#CCO)c2c(=O)n1-c1ccccc1
C. Cc1noc(-c2c(N)ncnc2N[C@@H](C)c2nc3cccc(C#CC(C)O)c3c(=O)n2-c2ccccc2)n1 (stereo partly drawn)
D. CC#Cc1cccc2nc([C@H](C)Nc3ncnc(N)c3-c3nnc(C)o3)n(C3CC3)c(=O)c12
Rank entries according to their CLint scaled at 5 μM, from the largest number down. Response format: the labels, sorted as the prompt asks.
A, D, B, C
(A: 105 mL/min/kg, D: 62.5 mL/min/kg, B: 39.8 mL/min/kg, C: 20.8 mL/min/kg)

###

- test: Compound stability in human liver microsomes
- Assay type: in vitro ADME
- cond: pH 7.4; human liver microsomes 0.5 mg protein/mL, compound 5 μM, NADPH, 37° C.; read-out: Human T1/2
quantity-kind: half-life at 5 μM (min)

Recorded results for 3 compounds are shown here.
compound | result-units | obs-value
CC[C@H](Nc1ncnc(N)c1-c1nc(C)no1)c1nc2cccc(C#CCO)c2c(=O)n1-c1ccccc1 [Example 36] | min | 17.7
CC[C@H](Nc1ncnc(N)c1-c1nnc(C)o1)c1nc2cccc(C#CCO)c2c(=O)n1-c1ccccc1 [Example 37] | min | 43.7
C#Cc1cccc2nc([C@H](C)Nc3ncnc(N)c3-c3ncn(C)n3)n(C3CC3)c(=O)c12 [Example 53] | min | 23.4

A. Cc1noc(-c2c(N)ncnc2N[C@@H](C)c2nc3cccc(C#CCO)c3c(=O)n2-c2ccccc2)n1 [Example 34]
B. C[C@H](Nc1ncnc(N)c1-c1nnn(C)n1)c1nc2cccc(C#CC(C)(C)O)c2c(=O)n1-c1ccccc1 [Example 4]
Endpoint returns whichever of A and B has the numerically higher half-life at 5 μM. Refer to your chosen item by its label in the answer.
B
